tgt: Cytochrome P450 2C19 (Homo sapiens) (UniProt P33261)
Sequence (P33261 whole entry, looked up): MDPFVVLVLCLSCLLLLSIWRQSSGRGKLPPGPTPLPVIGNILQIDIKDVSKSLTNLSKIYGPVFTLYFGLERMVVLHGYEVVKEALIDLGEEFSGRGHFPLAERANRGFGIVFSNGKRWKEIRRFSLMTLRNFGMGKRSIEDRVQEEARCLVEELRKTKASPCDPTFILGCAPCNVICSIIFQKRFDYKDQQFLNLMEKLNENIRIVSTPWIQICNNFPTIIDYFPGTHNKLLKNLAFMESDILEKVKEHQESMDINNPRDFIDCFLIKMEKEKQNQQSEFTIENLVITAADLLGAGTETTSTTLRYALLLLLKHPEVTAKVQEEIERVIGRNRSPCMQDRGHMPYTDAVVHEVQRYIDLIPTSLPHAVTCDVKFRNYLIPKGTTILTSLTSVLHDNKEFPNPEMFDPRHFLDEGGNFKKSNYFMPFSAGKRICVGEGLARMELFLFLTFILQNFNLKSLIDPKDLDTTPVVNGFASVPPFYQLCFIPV
testSummary: blockers of cytochrome P450 2C19 activity – biochemical, luminescence, ADME assay, primary screen (AID 778)
assayContext: CYP2C19 Supersomes, luciferin-H EGE luminescence, 30 min; at 5 µM; stronger effect = higher value
Out of some 96,000 compounds screened, about 20,000 (21%) were called active. Only a sample is shown.
Quick rule: inhibition of at least 40% means Met, below that means Not met.

Lookup: Is the recorded value of inhibition equal to or greater than 40% for this compound? `O=C(CCn1c(=S)[nH]c2ccccc2c1=O)NCCCN1CCCC1=O`
Found: Not met

Lookup: Answer whether inhibition of `CCOc1ccc(OCC)c(NC(=O)CN(C)S(=O)(=O)c2cccc3nsnc23)c1` is greater than or equal to 40%.
Found: Met

Lookup: Is inhibition at least 40%? Consider `CCOc1ccc(NC(=O)CCS(=O)(=O)c2cccc3nsnc23)cc1`
Found: Met

Lookup: Does inhibition meet or surpass 40% for `COC(=O)c1c(-c2ccc(C)cc2)csc1N` ?
Found: Not met

Lookup: In plain terms: is recorded inhibition at least 40% for `O=C(NCc1ccco1)c1cccn2c(=O)c3c4c(sc3nc12)CCCC4` ?
Found: Met

Continuing:
Lookup: Determine whether this compound has inhibition no lower than 40%: `N/C(=N\OC(=O)CCC1CCCCC1)c1ccccn1`
Found: Not met

Lookup: Decide: is the reported value of inhibition for `Cc1ccc(-c2nc(COC(=O)c3c(C)noc3C)cs2)cc1` equal to or greater than 40%?
Found: Met

Lookup: // inclusive: inhibition at least 40%? input: `Cc1noc(C)c1C(=O)N1CCOCC1`
Found: Not met

Lookup: Given the entry Cc1cc2c(c(=O)n1Cc1ccco1)C(c1ccccc1)C(C#N)=C(N)O2 (stereo unspecified) , answer whether its inhibition meets or surpasses 40%.
Found: Not met

Lookup: Entry `Cc1nc(SCC(=O)Nc2cc(C)on2)c2c3c(sc2n1)CCCC3` : is its inhibition no less than 40%?
Found: Not met

Lookup: Does COc1ccccc1NC(=O)CC(NCCN(C)C)C(=O)O (stereo unspecified) have a reported inhibition of at least 40%?
Found: Not met
